Just for reference, patent US9771341B2 is where these values come from.

Target: FAAH (Mus musculus, UniProt O08914)
Construct: Proteomes (mouse brain membrane fraction or cell lysates); from tissue; host or cells: mouse brain membrane fraction (or unspecified cell lysates)
Sequence (O08914 whole entry): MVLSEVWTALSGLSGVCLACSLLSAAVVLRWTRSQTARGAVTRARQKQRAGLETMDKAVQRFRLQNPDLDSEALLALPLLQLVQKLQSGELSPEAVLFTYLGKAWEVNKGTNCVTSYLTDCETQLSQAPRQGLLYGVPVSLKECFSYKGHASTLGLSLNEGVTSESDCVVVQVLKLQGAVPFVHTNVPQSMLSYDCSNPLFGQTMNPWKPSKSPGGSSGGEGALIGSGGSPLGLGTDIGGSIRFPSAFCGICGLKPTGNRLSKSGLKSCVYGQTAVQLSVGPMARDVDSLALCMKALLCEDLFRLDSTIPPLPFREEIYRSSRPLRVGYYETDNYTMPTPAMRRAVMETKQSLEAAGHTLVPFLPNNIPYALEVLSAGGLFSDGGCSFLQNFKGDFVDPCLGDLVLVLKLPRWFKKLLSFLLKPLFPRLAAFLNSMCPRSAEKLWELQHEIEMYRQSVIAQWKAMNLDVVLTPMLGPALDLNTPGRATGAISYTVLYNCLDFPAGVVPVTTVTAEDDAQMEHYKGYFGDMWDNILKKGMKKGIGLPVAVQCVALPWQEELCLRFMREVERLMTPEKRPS
Assay: In vitro competitive activity-based protein profiling (mouse), FAAH
Type: biochemical
Settings: 1 μM, mouse proteome, in vitro
Here the recorded inhibition at 1 µM is given for each entry.

In [3]: df
Out[3]:
                                   compound                        target_system  result
0  O=C(O)C1CCN(c2cc(C(F)(F)F)ccc2CN2CCN(C(=O)OC(C(F)(F)F)C(F)(F)F)CC2)C1 (stereo not drawn) [Example 72]  FAAH (Mus musculus, UniProt O08914)   < 25%

Shifting focus to the compound that follows.
stdin: Given the compound O=C(OC(C(F)(F)F)C(F)(F)F)N1CCN(Cc2cccc(OC(F)(F)F)c2N2CCC(N3CCCC3)CC2)CC1 [Example 32] , what is its reported inhibition at 1 µM?
stdout: < 25%
